Let's look at some sequences and their measured melting temperature.
# System: HeLa Kyoto
# protocol text: melting temperature (median over replicates), in situ; higher = more thermally stable
# test context: cell cycle stage: G1/S

Requested read-out: melting temperature. Entry: MAATKRKRRGGFAVQAKKPKRNEIDAEPPAKRHATAEEVEEEERDRIPGPVCKGKWKNKERILIFSSRGINFRTRHLMQDLRMLMPHSKADTKMDRKDKLFVINEVCEMKNCNKCIYFEAKKKQDLYMWLSNSPHGPSAKFLVQNIHTLAELKMTGNCLKGSRPLLSFDPAFDELPHYALLKELLIQIFSTPRYHPKSQPFVDHVFTFTILDNRIWFRNFQIIEEDAALVEIGPRFVLNLIKIFQGSFGGPTLYENPHYQSPNMHRRVIRSITAAKYREKQQVKDVQKLRKKEPKTLLPHDPTADVFVTPAEEKPIEIQWVKPEPKVDLKARKKRIYKRQRKMKQRMDSGKTK [BRIX1]
53.8 °C

Moving on to MKIKDAKKPSFPWFGMDIGGTLVKLSYFEPIDITAEEEQEEVESLKSIRKYLTSNVAYGSTGIRDVHLELKDLTLFGRRGNLHFIRFPTQDLPTFIQMGRDKNFSTLQTVLCATGGGAYKFEKDFRTIGNLHLHKLDELDCLVKGLLYIDSVSFNGQAECYYFANASEPERCQKMPFNLDDPYPLLVVNIGSGVSILAVHSKDNYKRVTGTSLGGGTFLGLCSLLTGCESFEEALEMASKGDSTQADKLVRDIYGGDYERFGLPGWAVASSFGNMIYKEKRESVSKEDLARATLVTITNNIGSVARMCAVNEKINRVVFVGNFLRVNTLSMKLLAYALDYWSKGQLKALFLEHEGYFGAVGALLGLPNFS [PANK3]
53.4 °C

====

# Test system: HeLa Kyoto
# protocol text: solubility in G1/S (NP-40 vs SDS abundance) (log2 ratio); higher = more soluble
# test context: cell cycle stage: G1/S
Let's look at some sequences and their measured solubility in G1/S (log2).
Answer with the value's number alone.

Solved cases below.
MDGEEKTYGGCEGPDAMYVKLISSDGHEFIVKREHALTSGTIKAMLSGPGQFAENETNEVNFREIPSHVLSKVCMYFTYKVRYTNSSTEIPEFPIAPEIALELLMAANFLDC [TCEB1]
0.256
MAGVACLGKAADADEWCDSGLGSLGPDAAAPGGPGLGAELGPGLSWAPLVFGYVTEDGDTALHLAVIHQHEPFLDFLLGFSAGTEYMDLQNDLGQTALHLAAILGETSTVEKLYAAGAGLCVAERRGHTALHLACRVGAHACARALLQPRPRRPREAPDTYLAQGPDRTPDTNHTPVALYPDSDLEKEEEESEEDWKLQLEAENYEGHTPLHVAVIHKDVEMVRLLRDAGADLDKPEPTCGRSPLHLAVEAQAADVLELLLRAGANPAARMYGGRTPLGSAMLRPNPILARLLRAHGAPEPEGEDEKSGPCSSSSDSDSGDEGDEYDDIVVHSSRSQTRLPPTPASKPLPDDPRPV [NFKBIB]
0.533
MIKLFSLKQQKKEEESAGGTKGSSKKASAAQLRIQKDINELNLPKTCDISFSDPDDLLNFKLVICPDEGFYKSGKFVFSFKVGQGYPHDPPKVKCETMVYHPNIDLEGNVCLNILREDWKPVLTINSIIYGLQYLFLEPNPEDPLNKEAAEVLQNNRRLFEQNVQRSMRGGYIGSTYFERCLK [UBE2M]
0.576
MTERFDCHHCNESLFGKKYILREESPYCVVCFETLFANTCEECGKPIGCDCKDLSYKDRHWHEACFHCSQCRNSLVDKPFAAKEDQLLCTDCYSNEYSSKCQECKKTIMPGTRKMEYKGSSWHETCFICHRCQQPIGTKSFIPKDNQNFCVPCYEKQHAMQCVQCKKPITTGGVTYREQPWHKECFVCTACRKQLSGQRFTARDDFAYCLNCFCDLYAKKCAGCTNPISGLGGTKYISFEERQWHNDCFNCKKCSLSLVGRGFLTERDDILCPDCGKDI [FHL2]
-0.304
MASRGRRPEHGGPPELFYDETEARKYVRNSRMIDIQTRMAGRALELLYLPENKPCYLLDIGCGTGLSGSYLSDEGHYWVGLDISPAMLDEAVDREIEGDLLLGDMGQGIPFKPGTFDGCISISAVQWLCNANKKSENPAKRLYCFFASLFSVLVRGSRAVLQLYPENSEQLELITTQATKAGFSGGMVVDYPNSAKAKKFYLCLFSGPSTFIPEGLSENQDEVEPRESVFTNERFPLRMSRRGMVRKSRAWVLEKKERHRRQGREVRPDTQYTGRKRKPRF [WBSCR22]
-0.361

Alright, here's another sequence for you.
Requested read-out: solubility in G1/S (log2). Entry: MRDRTHELRQGDDSSDEEDKERVALVVHPGTARLGSPDEEFFHKVRTIRQTIVKLGNKVQELEKQQVTILATPLPEESMKQELQNLRDEIKQLGREIRLQLKAIEPQKEEADENYNSVNTRMRKTQHGVLSQQFVELINKCNSMQSEYREKNVERIRRQLKITNAGMVSDEELEQMLDSGQSEVFVSNILKDTQVTRQALNEISARHSEIQQLERSIRELHDIFTFLATEVEMQGEMINRIEKNILSSADYVERGQEHVKTALENQKKARKKKVLIAICVSITVVLLAVIIGVTVVG [STX4]
0.326

====

Let's look at some sequences and their measured melting temperature.
# Tested on: HeLa Kyoto
# protocol text: melting temperature (median over replicates), in situ; higher = more thermally stable
# test context: cell cycle stage: G1/S
Please give the number followed by its unit.

Solved cases below.
MSDKPDMAEIEKFDKSKLKKTETQEKNPLPSKETIEQEKQAGES [TMSB4X]
52.9 °C
MASPQLCRALVSAQWVAEALRAPRAGQPLQLLDASWYLPKLGRDARREFEERHIPGAAFFDIDQCSDRTSPYDHMLPGAEHFAEYAGRLGVGAATHVVIYDASDQGLYSAPRVWWMFRAFGHHAVSLLDGGLRHWLRQNLPLSSGKSQPAPAEFRAQLDPAFIKTYEDIKENLESRRFQVVDSRATGRFRGTEPEPRDGIEPGHIPGTVNIPFTDFLSQEGLEKSPEEIRHLFQEKKVDLSKPLVATCGSGVTACHVALGAYLCGKPDVPIYDGSWVEWYMRARPEDVISEGRGKTH [MPST]
50.1 °C
MPHRKERPSGSSLHTHGSTGTAEGGNMSRLSLTRSPVSPLAAQGIPLPAQLTKSNAPVHIDVGGHMYTSSLATLTKYPDSRISRLFNGTEPIVLDSLKQHYFIDRDGEIFRYVLSFLRTSKLLLPDDFKDFSLLYEEARYYQLQPMVRELERWQQEQEQRRRSRACDCLVVRVTPDLGERIALSGEKALIEEVFPETGDVMCNSVNAGWNQDPTHVIRFPLNGYCRLNSVQVLERLFQRGFSVAASCGGGVDSSQFSEYVLCREERRPQPTPTAVRIKQEPLD [KCTD15]
56 °C

Requested read-out: melting temperature. Entry: MSCESSMVLGYWDIRGLAHAIRLLLEFTDTSYEEKRYTCGEAPDYDRSQWLDVKFKLDLDFPNLPYLLDGKNKITQSNAILRYIARKHNMCGETEEEKIRVDIIENQVMDFRTQLIRLCYSSDHEKLKPQYLEELPGQLKQFSMFLGKFSWFAGEKLTFVDFLTYDILDQNRIFDPKCLDEFPNLKAFMCRFEALEKIAAYLQSDQFCKMPINNKMAQWGNKPVC [GSTM3]
47.9 °C

====

# Tested on: HeLa Kyoto
# protocol text: melting temperature (median over replicates), in situ; higher = more thermally stable
# test context: cell cycle stage: mitosis
readout label: melting temperature (°C)
Quick reminder: number only, in °C, skip the unit.

Please state recorded melting temperature (tested on HeLa Kyoto) of MVKLFIGNLPREATEQEIRSLFEQYGKVLECDIIKNYGFVHIEDKTAAEDAIRNLHHYKLHGVNINVEASKNKSKTSTKLHVGNISPTCTNKELRAKFEEYGPVIECDIVKDYAFVHMERAEDAVEAIRGLDNTEFQGKRMHVQLSTSRLRTAPGMGDQSGCYRCGKEGHWSKECPIDRSGRVADLTEQYNEQYGAVRTPYTMSYGDSLYYNNAYGALDAYYKRCRAARSYEAVAAAAASVYNYAEQTLSQLPQVQNTAMASHLTSTSLDPYDRHLLPTSGAAATAAAAAAAAAAVTAASTSYYGRDRSPLRRATAPVPTVGEGYGYGHESELSQASAAARNSLYDMARYEREQYADRARYSAF [RBM4]
48

====

# Tested on: HeLa Kyoto
# protocol text: melting temperature (median over replicates), in situ; higher = more thermally stable
# test context: cell cycle stage: G1/S
readout label: melting temperature (°C)
Quick reminder: number only, in °C, skip the unit.

Requested read-out: melting temperature. Entry: MNNLNDPPNWNIRPNSRADGGDGSRWNYALLVPMLGLAAFRWIWSRESQKEVEKEREAYRRRTAAFQQDLEAKYHAMISENRRAVAQLSLELEKEQNRTASYREALISQGRKLVEEKKLLEQERAQVMQEKRQVQPLRSAYLSCLQREENWQRRARLLLKEFEAVLTERQNIYCSLFLPRSKRLEIEKSLLVRASVDPVAADLEMAAGLTDIFQHDTYCGDVWNTNKRQNGRLMWLYLKYWELVVELKKFKRVEEAILEK [CCDC127]
54

Moving on to MASYYEILDVPRSASADDIKKAYRRKALQWHPDKNPDNKEFAEKKFKEVAEAYEVLSDKHKREIYDRYGREGLTGTGTGPSRAEAGSGGPGFTFTFRSPEEVFREFFGSGDPFAELFDDLGPFSELQNRGSRHSGPFFTFSSSFPGHSDFSSSSFSFSPGAGAFRSVSTSTTFVQGRRITTRRIMENGQERVEVEEDGQLKSVTINGVPDDLALGLELSRREQQPSVTSRSGGTQVQQTPASCPLDSDLSEDEDLQLAMAYSLSEMEAAGKKPAGGREAQHRRQGRPKAQHQDPGLGGTQEGARGEATKRSPSPEEKASRCLIL [DNAJB2]
50.2

Moving on to MEGMDVDLDPELMQKFSCLGTTDKDVLISEFQRLLGFQLNPAGCAFFLDMTNWNLQAAIGAYYDFESPNISVPSMSFVEDVTIGEGESIPPDTQFVKTWRIQNSGAEAWPPGVCLKYVGGDQFGHVNMVMVRSLEPQEIADVSVQMCSPSRAGMYQGQWRMCTATGLYYGDVIWVILSVEVGGLLGVTQQLSSFETEFNTQPHRKVEGNFNPFASPQKNRQSDENNLKDPGGSEFDSISKNTWAPAPDTWAPAPDQTEQDQNRLSQNSVNLSPSSHANNLSVVTYSKGLHGPYPFGQS [C6ORF106]
49.4

Moving on to MATEGDVELELETETSGPERPPEKPRKHDSGAADLERVTDYAEEKEIQSSNLETAMSVIGDRRSREQKAKQEREKELAKVTIKKEDLELIMTEMEISRAAAERSLREHMGNVVEALIALTN [HYPK]
54.4

Moving on to MKKVRLKELESRLQQVDGFEKPKLLLEQYPTRPHIAACMLYTIHNTYDDIENKVVADLGCGCGVLSIGTAMLGAGLCVGFDIDEDALEIFNRNAEEFELTNIDMVQCDVCLLSNRMSKSFDTVIMNPPFGTKNNKGTDMAFLKTALEMARTAVYSLHKSSTREHVQKKAAEWKIKIDIIAELRYDLPASYKFHKKKSVDIEVDLIRFSF [METTL5]
58.9

Moving on to MCGNNMSTPLPAIVPAARKATAAVIFLHGLGDTGHGWAEAFAGIRSSHIKYICPHAPVRPVTLNMNVAMPSWFDIIGLSPDSQEDESGIKQAAENIKALIDQEVKNGIPSNRIILGGFSQGGALSLYTALTTQQKLAGVTALSCWLPLRASFPQGPIGGANRDISILQCHGDCDPLVPLMFGSLTVEKLKTLVNPANVTFKTYEGMMHSSCQQEMMDVKQFIDKLLPPID [LYPLA1]
54.6
